Test protocol: Single dose PK in healthy subjects (Cohorts 1, 2, S1 and S2), plasma
Type: in vivo, human
Condition description: human, plasma, intravenous, 56 mg; 0.5 hr; read-out: Plasma concentration, Q3
Test readout: concentration at 0.5 h (ng/mL)
Give just the number in ng/mL; leave the unit off.

Consider the molecule "COC(=O)N1CCC[C@H](NS(C)(=O)=O)[C@@H]1CO[C@H]1CC[C@@H](c2ccccc2)CC1" and give its measured concentration at 0.5 h.
75.9

* * *

Test protocol: Single dose PK in healthy subjects (Cohorts 1, 2, S1 and S2), plasma
Type: in vivo, human
Condition description: human, plasma, iv, 240 mg, 240 mg single IV infusion; 6 hr; read-out: Plasma Concentration of Cmpd A, Median
Description: […]
Test readout: concentration at 6 hr (ng/mL)
Give just the number in ng/mL; leave the unit off.

Consider the molecule "COC(=O)N1CCC[C@H](NS(C)(=O)=O)[C@@H]1CO[C@H]1CC[C@@H](c2ccccc2)CC1" and give its measured concentration at 6 hr.
410
